Where do the numbers come from? From the supplement of paper PMC11281043.

Recorded measurements of max % larvae, one per entry
System: Danio rerio embryo/larva
Assay: max % larvae with abnormal position across tested concentrations; higher = more toxic; extreme values may be limits of the assay
Conditions: exposure: 6-8 hpf to 5 dpf, scored at 6 dpf
MEASUREMENT NAME: max % larvae (%)

- MOLECULE: "O=S(=O)(O)C(F)(F)C(F)(F)C(F)(F)C(F)(F)F [Perfluorobutanesulfonic acid] (max tested concentration (log10 uM): 2)"
  RECORDED VALUE: 0
- MOLECULE: "OCC(F)(F)C(F)(F)C(F)(F)C(F)(F)C(F)(F)C(F)F [1H,1H,7H-Dodecafluoro-1-heptanol] (max tested concentration (log10 uM): 2)"
  RECORDED VALUE: 0
- MOLECULE: "O=C(O)C(F)(F)C(F)(F)C(F)(F)C(F)(F)C(F)(F)C(F)(F)C(F)(F)C(F)(F)F [Perfluorononanoic acid] (max tested concentration (log10 uM): 2)"
  RECORDED VALUE: 37.5
- MOLECULE: "O=C(CC(=O)C(F)(F)F)C(F)(F)F [1,1,1,5,5,5-Hexafluoro-2,4-pentanedione] (max tested concentration (log10 uM): 2)"
  RECORDED VALUE: 0
- MOLECULE: "FC(F)(F)C(F)(C(F)(F)F)C(F)(F)C(F)(F)CC1CO1 (stereo unspecified) [3-(Perfluoro-3-methylbutyl)-1,2-propenoxide] (max tested concentration (log10 uM): 1.60206)"
  RECORDED VALUE: 0
- MOLECULE: "FC(F)(F)C(F)(F)C(F)(F)C(F)(F)CCI [1H,1H,2H,2H-Perfluorohexyl iodide] (max tested concentration (log10 uM): 2)"
  RECORDED VALUE: 0
- MOLECULE: "O=C(O)C(F)(F)C(F)(F)C(F)(F)C(F)(F)C(=O)O [Perfluorohexanedioic acid] (max tested concentration (log10 uM): 2)"
  RECORDED VALUE: 0
- MOLECULE: "C=CC(=O)OCC(F)(F)C(F)(F)C(F)(F)C(F)(F)C(F)(F)C(F)(F)C(F)(F)C(F)F [1H,1H,9H-Perfluorononyl acrylate] (max tested concentration (log10 uM): 2)"
  RECORDED VALUE: 4.55
- MOLECULE: "C=C(C)C(=O)OCC(F)(F)C(F)(F)C(F)(F)C(F)F [1H,1H,5H-Perfluoropentyl methacrylate] (max tested concentration (log10 uM): 2)"
  RECORDED VALUE: 0
- MOLECULE: "O=C(O)C(F)(F)C(F)(F)C(F)(F)C(F)(F)C(F)(F)C(F)(F)C(F)(F)F [Potassium perfluorooctanoate] (max tested concentration (log10 uM): 2)"
  RECORDED VALUE: 2.27
- MOLECULE: "FC(F)(F)C(F)(F)C(F)(F)C(F)(F)C(F)(F)C(F)(F)C(F)(F)I [1-Iodopentadecafluoroheptane] (max tested concentration (log10 uM): 2)"
  RECORDED VALUE: 10.4

----------
Tested on: Danio rerio embryo/larva
Experiment: max % larvae with abnormal position across tested concentrations; higher = more toxic; extreme values may be limits of the assay
Conditions: exposure: 6-8 hpf to 5 dpf, scored at 6 dpf
Entries annotated with measured max % larvae
MEASUREMENT NAME: max % larvae

- MOLECULE: "O=S(=O)(O)CCC(F)(F)C(F)(F)C(F)(F)C(F)(F)F [4:2 Fluorotelomer sulfonic acid] (max tested concentration (log10 uM): 2)"
  MEASUREMENT NAME: "max % larvae"
  RECORDED VALUE: "0%"
- MOLECULE: "O=C(O)C(F)(F)C(F)(F)OC(F)(F)F [Perfluoro-3-methoxypropanoic acid] (max tested concentration (log10 uM): 2)"
  MEASUREMENT NAME: "max % larvae"
  RECORDED VALUE: "0%"
- MOLECULE: "O=C(O)C(F)(F)C(F)(F)C(F)(F)C(F)(F)C(F)(F)C(F)(F)C(F)(F)C(F)(F)C(F)(F)C(F)(F)C(F)(F)C(F)(F)C(F)(F)F [Perfluorotetradecanoic acid] (max tested concentration (log10 uM): 1.30103)"
  MEASUREMENT NAME: "max % larvae"
  RECORDED VALUE: "0%"
